- System: Lewis lung carcinoma (LLC) tumour
- MEASUREMENT_PROTOCOL: Biodistribution in LLC tumour model in vivo
- Design: species or system C57BL/6 mice
- STUDY_CONDITIONS: 5 min post injection
- Description: 1×10^6 Lewis lung carcinoma (LLC) cells are injected subcutaneously into right inner thigh of C57BL/6 mice. Tumours were allowed to grow for 15 days prior to biodistribution being carried out. Biodistribution studies were performed in the LLC tumour model. Biodistribution was performed in the LLC tumour model of Example 23 with Compounds 46B and 48B.
MEASURED_ENDPOINT: Tumour/Lung, mean
Just the number, please.

COMPOUND	Tumour/Lung, mean
NC(=O)[C@H](CCCCNC(=O)CON=Cc1ccc([18F])cc1)NC(=O)CCN(C1(C(=O)NO)CCCC1)S(=O)(=O)c1ccc(Oc2ccc(F)cc2)cc1 [Compound 46B]	0.21

Q) Bench note: what Tumour/Lung, mean did NC(=O)[C@H](Cc1ccc(O)c([123I])c1)NC(=O)CCOCCOCCOCCOCCOCCOCCOCCOCCOCCOCCOCCNC(=O)CCOCCOCCOCCOCCOCCOCCOCCOCCOCCOCCOCCNC(=O)CCN(C1(C(=O)NO)CCCC1)S(=O)(=O)c1ccc(Oc2ccc(F)cc2)cc1 [Compound 32A] show?
A) 0.30

Q) And the next one, NC(=O)[C@H](Cc1ccc(O)c([123I])c1)NC(=O)CCOCCOCCOCCOCCOCCOCCOCCOCCOCCOCCOCCNC(=O)CCN(C1(C(=O)NO)CCCC1)S(=O)(=O)c1ccc(Oc2ccc(F)cc2)cc1 [Compound 44A] ?
A) 0.49

Q) And the next one, NCCCC[C@H](NC(=O)CCN(C1(C(=O)NO)CCCC1)S(=O)(=O)c1ccc(Oc2ccc(F)cc2)cc1)C(=O)N[C@@H](CCCCN)C(=O)N[C@@H](CCCCN)C(=O)N[C@@H](CCCCN)C(=O)N[C@@H](CCCCN)C(=O)NCCOCCOCCOCCNC(=O)COCC(=O)N[C@@H](Cc1ccc(O)c([123I])c1)C(N)=O [Compound 42A] ?
A) 0.26

Q) And the next one, O=C(CCN(C1(C(=O)NO)CCCC1)S(=O)(=O)c1ccc(Oc2ccc(F)cc2)cc1)NCCc1ccc(O)c([123I])c1 [Compound 24A] ?
A) 0.22

Q) And the next one, NC(=O)[C@H](Cc1ccc(O)c([123I])c1)NC(=O)[C@H](CCC(=O)O)NC(=O)[C@H](CCC(=O)O)NC(=O)[C@H](CCC(=O)O)NC(=O)[C@H](CCC(=O)O)NC(=O)[C@H](CCC(=O)O)NC(=O)CCN(C1(C(=O)NO)CCCC1)S(=O)(=O)c1ccc(Oc2ccc(F)cc2)cc1 [Compound 21A] ?
A) 0.28

Q) And the next one, NC(=O)[C@H](CCCCNC(=O)CON=Cc1ccc([18F])cc1)NC(=O)CCOCCOCCOCCOCCOCCOCCOCCOCCOCCOCCOCCNC(=O)CCOCCOCCOCCOCCOCCOCCOCCOCCOCCOCCOCCNC(=O)CCN(C1(C(=O)NO)CCCC1)S(=O)(=O)c1ccc(Oc2ccc(F)cc2)cc1 [Compound 48B] ?
A) 0.26

Q) And the next one, NC(=O)[C@H](Cc1ccc(O)c([123I])c1)NC(=O)COCC(=O)NCCOCCOCCOCCNC(=O)[C@H](CCC(=O)O)NC(=O)[C@H](CCC(=O)O)NC(=O)[C@H](CCC(=O)O)NC(=O)[C@H](CCC(=O)O)NC(=O)[C@H](CCC(=O)O)NC(=O)CCN(C1(C(=O)NO)CCCC1)S(=O)(=O)c1ccc(Oc2ccc(F)cc2)cc1 [Compound 38A] ?
A) 0.33

Data provenance: patent US20070104644A1
